Exercise: state measured residual activity for each of the molecules provided.
- assayed-system: Vascular endothelial growth factor receptor 2 (Homo sapiens) (UniProt P35968)
- Sequence (P35968 whole entry): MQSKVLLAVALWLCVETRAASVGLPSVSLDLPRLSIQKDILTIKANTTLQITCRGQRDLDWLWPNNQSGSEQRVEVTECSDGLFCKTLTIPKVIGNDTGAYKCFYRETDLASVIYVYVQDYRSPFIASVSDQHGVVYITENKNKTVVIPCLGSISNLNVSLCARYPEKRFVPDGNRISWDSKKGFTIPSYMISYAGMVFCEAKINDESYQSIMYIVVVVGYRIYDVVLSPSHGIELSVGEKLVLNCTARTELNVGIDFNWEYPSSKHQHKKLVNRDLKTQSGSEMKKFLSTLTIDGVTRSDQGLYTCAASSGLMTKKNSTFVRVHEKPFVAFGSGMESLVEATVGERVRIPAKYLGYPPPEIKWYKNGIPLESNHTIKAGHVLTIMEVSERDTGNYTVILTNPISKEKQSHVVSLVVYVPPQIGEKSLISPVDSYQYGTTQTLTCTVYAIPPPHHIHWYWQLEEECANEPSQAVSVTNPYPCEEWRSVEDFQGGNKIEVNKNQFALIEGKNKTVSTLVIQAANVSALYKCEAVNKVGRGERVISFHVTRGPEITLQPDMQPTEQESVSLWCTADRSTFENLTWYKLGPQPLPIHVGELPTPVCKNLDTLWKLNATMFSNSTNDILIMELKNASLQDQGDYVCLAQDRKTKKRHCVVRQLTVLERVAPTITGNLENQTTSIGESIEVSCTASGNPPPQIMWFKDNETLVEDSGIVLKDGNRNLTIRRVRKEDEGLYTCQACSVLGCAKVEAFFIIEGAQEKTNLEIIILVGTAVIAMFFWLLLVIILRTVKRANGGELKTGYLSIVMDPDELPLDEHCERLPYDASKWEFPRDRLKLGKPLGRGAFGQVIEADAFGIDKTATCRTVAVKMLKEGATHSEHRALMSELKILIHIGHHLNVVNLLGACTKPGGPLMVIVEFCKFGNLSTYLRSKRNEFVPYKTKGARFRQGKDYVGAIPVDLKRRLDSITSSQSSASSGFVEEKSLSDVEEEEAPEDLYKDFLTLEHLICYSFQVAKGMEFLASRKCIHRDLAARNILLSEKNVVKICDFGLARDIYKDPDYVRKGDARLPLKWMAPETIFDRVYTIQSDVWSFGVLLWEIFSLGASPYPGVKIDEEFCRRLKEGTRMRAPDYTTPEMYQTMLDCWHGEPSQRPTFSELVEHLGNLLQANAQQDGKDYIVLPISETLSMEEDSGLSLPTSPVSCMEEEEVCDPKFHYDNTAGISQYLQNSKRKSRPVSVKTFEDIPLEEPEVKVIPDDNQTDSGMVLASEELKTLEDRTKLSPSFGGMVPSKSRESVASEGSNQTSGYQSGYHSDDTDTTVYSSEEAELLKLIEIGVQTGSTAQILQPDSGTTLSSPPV
- assay: Inhibition of VEGFR2 (unknown origin) at 1 uM by KINOMEscanning assay relative to control; values are per cent of control
One number for each entry, in %.

Examples with answers:
{"columns": ["test-smiles", "assayed-system", "quantity-kind", "reported-value"],
 "data": [
  ["COc1cc(-c2c[nH]c3ncc(-c4cccc(N)c4)cc23)cc(OC)c1OC", "Vascular endothelial growth factor receptor 2 (Homo sapiens) (UniProt P35968)", "residual activity", 96],
  ["COc1ccc(-c2cnc3[nH]cc(-c4ccc(OC)c(OC)c4)c3c2)cc1OC", "Vascular endothelial growth factor receptor 2 (Homo sapiens) (UniProt P35968)", "residual activity", 96],
  ["COc1ccc(-c2c[nH]c3ncc(-c4ccc(C(=O)N5CCOCC5)c(N)c4)cc23)cc1OC", "Vascular endothelial growth factor receptor 2 (Homo sapiens) (UniProt P35968)", "residual activity", 79],
  ["COc1ccc(-c2cnc3[nH]cc(-c4ccc(OC)c(OC)c4)c3c2)cc1N", "Vascular endothelial growth factor receptor 2 (Homo sapiens) (UniProt P35968)", "residual activity", 79]
]}

Next molecule, please.
Fill in: Vascular endothelial growth factor receptor 2 (Homo sapiens) (UniProt P35968) residual activity for `COc1ccc(-c2c[nH]c3ncc(-c4cc(OC)c(OC)c(OC)c4)cc23)cc1OC` = 97
